- Study target: UniProtKB P53184
- Sequence (P53184 whole entry): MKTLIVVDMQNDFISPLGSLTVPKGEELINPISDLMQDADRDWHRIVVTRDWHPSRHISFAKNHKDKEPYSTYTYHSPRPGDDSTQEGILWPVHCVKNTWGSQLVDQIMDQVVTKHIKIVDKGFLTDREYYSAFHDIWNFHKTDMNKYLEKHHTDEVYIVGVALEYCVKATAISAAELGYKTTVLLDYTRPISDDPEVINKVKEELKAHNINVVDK
- Test protocol: 15N kinetic isotope effect with substrates
- Format: biochemical, S. cerevisiae
- Settings: on V/K, pH 7.5
Experimental readout: 15N KIE
Quick one: just the number, no unit, thanks!

>>> measured_result("NC(=S)c1cccnc1 [thionicotinamide]")
1.0262
>>> measured_result("NC(=O)c1cccnc1 [nicotinamide]")
1.0122
>>> measured_result("NC(=O)c1cnccn1 [pyrazinamide]")
1.0231

# input for lookup
Given item Cc1cncc(C(N)=O)c1 [5-methylnicotinamide] , the value recorded as its 15N KIE is 1.0151
